Just for reference, paper PMC12326358 is where these values come from.

Protocol Notes: Pharmacokinetic studies (oral and intravenous dosing) in jugular vein cannulated rats
Condition Context: rat, in vivo, iv, 1.5 mg, Cmax, nanoemulsion, rats; serum, dose-normalized to 1 mg/kg; mean ± SD
// reported Cmax for each item listed
Write the answer as a number in ng/mL, unit excluded.

Molecule: CCCCCc1cc(O)c2c(c1)OC(C)(C)c1ccc(C)cc1-2
Cmax [ng/mL]: 1230

Data request: Give the measured Cmax of CCCCCc1cc(O)c2c(c1)OC(C)(CCC=C(C)C)C=C2 (centres unmarked) .
Data returned: 935

====

Protocol Notes: Lymphatic transport studies in anesthetized mesenteric lymph duct cannulated rats
Condition Context: rat, in vivo, F, total absolute bioavailability, nanoemulsion, intraduodenal, lymph duct-cannulated rats; sum of FAL and FAP; mean ± SD
Reported Metric: bioavailability (%)
Value expressed in %; do not type the unit.

Here is how some compounds turned out for bioavailability.
Compound: CCCCCc1cc(O)c2c(c1)OC(C)(C)c1ccc(C)cc1-2
bioavailability, %: 29
--
Compound: C=C(C)[C@@H]1CCC(C)=C[C@H]1c1c(O)cc(CCCCC)cc1O
bioavailability, %: 24

Data request: Using the record for CCCCCc1cc(O)c2c(c1)OC(C)(CCC=C(C)C)C=C2 (stereo not drawn) , report its bioavailability.
Data returned: 29
